# tested system: T1, P6-AA-1HAA-E
# T1 chain: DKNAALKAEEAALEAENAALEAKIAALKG
# procedure text: two-hybrid library CCmax;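 further: natural log of median RNA to DNA barcode read ratio; higher means stronger binding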
# condition label: mean of both orientations
readout kind: interaction score
Please reply with the number alone, leaving off any unit.

Which interaction score is listed for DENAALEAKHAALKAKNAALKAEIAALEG [P5-AA-1HAA-H] ?
-0.637

# query: interaction score of entry DENAALEAKDAALKAKNAALKAEIAALEG [P5-AA-1HAA-D]
-1.72

Value lookup for interaction score; key = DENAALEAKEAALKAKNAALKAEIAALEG [P5-AA-1HAA-E]
-1.42

Could you tell me which interaction score is on file for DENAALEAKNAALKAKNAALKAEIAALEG [P5-AA-1HAA-N] ?
0.442

Ref: paper PMC10397247
